target: Amine oxidase [copper-containing] 3 (Bos taurus, UniProt Q9TTK6); test: Inhibition of bovine plasma VAP-1 using 6-(5-Pheny1-2H-tetrazol-2-yl)hexan-1-amine as substrate measured after 30 mins by UV-HPLC analysis; type: cell-free
Labelling: IC50 reported below 6 µM becomes Criterion met; at or above becomes Criterion not met.

Challenge: I'd appreciate it if you could check whether `Cl.NCC(=O)NCc1cccc(Cn2nnc(-c3ccccc3)n2)c1` has IC50 smaller than 6 µM.
Response given: Criterion met

Challenge: Also `NCC(=O)NCCCCCCn1nnc(-c2ccncc2)n1` ?
Response given: Criterion not met

Challenge: Also `NCC(=O)NCCCCCCCCn1nnc(-c2ccccc2)n1` ?
Response given: Criterion met

Challenge: Also `Cc1ccc(-c2nnn(CCCCCCNC(=O)CN)n2)cc1` ?
Response given: Criterion met

Challenge: Also `NCC(=O)NCCCn1nnc(-c2ccccc2)n1` ?
Response given: Criterion not met

Challenge: Also `NCC(=O)NCCCCCCCn1nnc(-c2ccccc2)n1` ?
Response given: Criterion met

* * *

Exercise: for every item that follows, state its recorded pIC50.
biological target: Amine oxidase [copper-containing] 3 (Homo sapiens); assay: Inhibition of human plasma VAP-1 using 6-(5-Pheny1-2H-tetrazol-2-yl)hexan-1-amine as substrate preincubated with enzyme for 15 mins followed by substrate addition measured after 120 mins by UV-HPLC analysis
Sequence (Q16853 whole entry): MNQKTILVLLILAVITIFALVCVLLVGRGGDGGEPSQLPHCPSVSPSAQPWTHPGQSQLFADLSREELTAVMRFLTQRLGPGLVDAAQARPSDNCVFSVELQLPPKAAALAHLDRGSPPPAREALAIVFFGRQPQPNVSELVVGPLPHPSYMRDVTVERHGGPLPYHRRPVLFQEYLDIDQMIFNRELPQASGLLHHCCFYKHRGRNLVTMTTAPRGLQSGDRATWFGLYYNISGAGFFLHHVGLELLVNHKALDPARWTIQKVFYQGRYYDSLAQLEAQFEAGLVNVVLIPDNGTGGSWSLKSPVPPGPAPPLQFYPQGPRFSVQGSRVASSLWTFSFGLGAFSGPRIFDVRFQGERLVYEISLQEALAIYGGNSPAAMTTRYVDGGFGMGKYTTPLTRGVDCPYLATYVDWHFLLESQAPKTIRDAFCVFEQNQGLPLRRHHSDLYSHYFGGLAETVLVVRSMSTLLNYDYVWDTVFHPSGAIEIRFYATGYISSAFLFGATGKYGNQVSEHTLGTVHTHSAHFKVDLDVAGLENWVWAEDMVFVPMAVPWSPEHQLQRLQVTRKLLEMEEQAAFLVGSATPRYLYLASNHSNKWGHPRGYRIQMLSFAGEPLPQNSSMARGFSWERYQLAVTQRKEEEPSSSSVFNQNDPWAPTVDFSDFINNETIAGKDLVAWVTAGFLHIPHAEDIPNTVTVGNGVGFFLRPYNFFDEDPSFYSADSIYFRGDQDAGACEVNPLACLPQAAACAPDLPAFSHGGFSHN
Note on units: pIC50 is unitless, being -log10 of a concentration expressed in mol/L.

Challenge: Please provide the recorded pIC50 for `Cl.NCC(=O)NCc1cccc(Cn2nnc(-c3ccccc3)n2)c1` , tested on Amine oxidase [copper-containing] 3 (Homo sapiens).
Response given: 5.68

Challenge: Also `N#Cc1ccc(-c2nnn(CCCCCCNC(=O)CN)n2)cc1` ?
Response given: 4.49

Challenge: Also `CS(=O)(=O)c1ccc(-c2nnn(CCCCCCNC(=O)CN)n2)cc1` ?
Response given: 4.54

Challenge: Also `CN(Cc1cccc(Cn2nnc(-c3ccccc3)n2)c1)C(=O)CN` ?
Response given: 4.70

* * *

target: Amine oxidase [copper-containing] 3 (Bos taurus); test: Inhibition of bovine plasma VAP-1 using 6-(5-Pheny1-2H-tetrazol-2-yl)hexan-1-amine as substrate preincubated with enzyme for 15 mins followed by substrate addition measured after 30 mins by UV-HPLC analysis; type: cell-free
Exercise: for every item that follows, state its recorded IC50.

Challenge: Sample `NCC(=O)NCCCCCCn1nnc(-c2ccc(N3CCOCC3)cc2)n1` — what was its IC50?
Response given: 5.6 µM

Challenge: Also `NCC(=O)NCCCCCCn1nnc(-c2ccc(C(N)=O)cc2)n1` ?
Response given: 5.2 µM

Challenge: Also `NCC(=O)NCc1ccccc1Cn1nnc(-c2ccccc2)n1` ?
Response given: > 10 µM

Challenge: Also `NCC(=O)NCCCCCn1nnc(-c2ccccc2)n1` ?
Response given: > 10 µM

Challenge: Also `NCC(=O)NCCCCn1nnc(-c2ccccc2)n1` ?
Response given: > 10 µM

Challenge: Also `NCC(=O)N1CCC(CCCn2nnc(-c3ccccc3)n2)CC1` ?
Response given: > 10 µM

Challenge: Also `NCC(=O)NCCCCCCCCn1nnc(-c2ccccc2)n1` ?
Response given: 4.8 µM

Challenge: Also `COC(=O)c1ccc(-c2nnn(CCCCCCNC(=O)CN)n2)cc1` ?
Response given: 6.1 µM

Challenge: Also `NCC(=O)NCCCCCCn1nnc(-c2ccncc2)n1` ?
Response given: 5.4 µM

Challenge: Also `NCC(=O)NCCCCCCn1cc(-c2ccccc2)cn1` ?
Response given: 7.9 µM

Challenge: Also `CC(C)(C)NC(=O)c1ccc(OC/C(=C/F)CN)cc1` ?
Response given: 0.027 µM

Challenge: Also `NCC(=O)NCCn1nnc(-c2ccccc2)n1` ?
Response given: > 10 µM

* * *

molecular target: VAP-1 (amine oxidase [copper-containing] 3) (Bos taurus); assay: Stability of compound assessed as bovine plasma VAP-1 mediated drug degradation by measuring parent compound remaining at 10 uM incubated for 15 mins by HPLC-MS analysis; format: ADME, cell-free; conditions: cattle, bovine plasma VAP-1 (amine oxidase [copper-containing] 3), read-out: Stability
Labelling: remaining at 0.25 h, 10 µM reported below 90% becomes True; at or above becomes False.

Challenge: I'd appreciate it if you could check whether `N#Cc1ccc(-c2nnn(CCCCCCNC(=O)CN)n2)cc1` has remaining at 0.25 h, 10 µM smaller than 90%.
Response given: True

Challenge: Also `Cl.N#Cc1ccc(-c2nnn(Cc3cccc(CNC(=O)CN)c3)n2)cc1` ?
Response given: False

Challenge: Also `NCC(=O)NCCCCCCn1nnc(-c2ccccc2)n1` ?
Response given: True

Challenge: Also `CN(Cc1cccc(Cn2nnc(-c3ccccc3)n2)c1)C(=O)CN` ?
Response given: False

Challenge: Also `NCCCCCCn1nnc(-c2ccccc2)n1` ?
Response given: True

* * *

Target: Amine oxidase [copper-containing] 3 (Bos taurus) (UniProt Q9TTK6)
Sequence (whole entry): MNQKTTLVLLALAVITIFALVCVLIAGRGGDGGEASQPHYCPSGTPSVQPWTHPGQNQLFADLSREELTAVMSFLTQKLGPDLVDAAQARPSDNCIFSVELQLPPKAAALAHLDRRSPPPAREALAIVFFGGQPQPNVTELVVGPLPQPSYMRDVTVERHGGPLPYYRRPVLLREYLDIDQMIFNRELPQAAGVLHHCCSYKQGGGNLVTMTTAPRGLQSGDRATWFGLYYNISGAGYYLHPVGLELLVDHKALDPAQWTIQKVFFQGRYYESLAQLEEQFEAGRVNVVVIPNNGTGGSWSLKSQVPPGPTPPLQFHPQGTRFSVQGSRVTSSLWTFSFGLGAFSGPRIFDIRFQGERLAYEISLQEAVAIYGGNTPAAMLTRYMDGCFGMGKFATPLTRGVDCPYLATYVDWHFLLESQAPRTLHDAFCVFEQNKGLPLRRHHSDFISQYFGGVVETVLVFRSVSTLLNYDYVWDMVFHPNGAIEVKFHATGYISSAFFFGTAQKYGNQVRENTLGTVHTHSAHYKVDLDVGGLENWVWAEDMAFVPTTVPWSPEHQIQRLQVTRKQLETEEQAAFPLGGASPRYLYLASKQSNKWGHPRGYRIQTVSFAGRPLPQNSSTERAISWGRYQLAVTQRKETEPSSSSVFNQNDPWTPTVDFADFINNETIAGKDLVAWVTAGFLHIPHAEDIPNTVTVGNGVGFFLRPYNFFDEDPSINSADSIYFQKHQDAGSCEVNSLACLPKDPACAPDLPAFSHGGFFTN
Assay: Inhibition of bovine plasma VAP-1 using 6-(5-Pheny1-2H-tetrazol-2-yl)hexan-1-amine as substrate at 10 uM preincubated with enzyme for 15 mins followed by substrate addition measured after 30 mins by UV-HPLC analysis relative to control
Format: cell-free
Details: time 45.0 min
Exercise: for every item that follows, state its recorded inhibition.

Challenge: Please provide the recorded inhibition for `NCC(=O)NCCCCCCn1ccc(-c2ccccc2)n1` , tested on Amine oxidase [copper-containing] 3 (Bos taurus) (UniProt Q9TTK6).
Response given: 37%

Challenge: Also `NCC(=O)NCCn1nnc(-c2ccccc2)n1` ?
Response given: 31%

Challenge: Also `NCC(=O)N1CCC(CCCn2nnc(-c3ccccc3)n2)CC1` ?
Response given: 18%

Challenge: Also `NCC(=O)Nc1ccc(CCn2nnc(-c3ccccc3)n2)cc1` ?
Response given: 18%

Challenge: Also `CN(Cc1cccc(Cn2nnc(-c3ccccc3)n2)c1)C(=O)CN` ?
Response given: 49%

* * *

molecular target: Amine oxidase [copper-containing] 3 (Bos taurus); test: Inhibition of bovine plasma VAP-1 using 6-(5-Pheny1-2H-tetrazol-2-yl)hexan-1-amine as substrate measured after 30 mins by UV-HPLC analysis; type: cell-free
readout-type: IC50

Challenge: Sample `NCC(=O)NCCCCCCn1ccc(-c2ccccc2)n1` — what was its IC50?
Response given: > 10 µM

Challenge: Also `NCC(=O)NCCCCCCn1nnc(-c2ccccn2)n1` ?
Response given: > 10 µM

Challenge: Also `NCC(=O)N1CCC(CCCn2nnc(-c3ccccc3)n2)CC1` ?
Response given: > 10 µM

* * *

Biological target: Amine oxidase [copper-containing] 3 (Bos taurus)
Sequence (whole entry): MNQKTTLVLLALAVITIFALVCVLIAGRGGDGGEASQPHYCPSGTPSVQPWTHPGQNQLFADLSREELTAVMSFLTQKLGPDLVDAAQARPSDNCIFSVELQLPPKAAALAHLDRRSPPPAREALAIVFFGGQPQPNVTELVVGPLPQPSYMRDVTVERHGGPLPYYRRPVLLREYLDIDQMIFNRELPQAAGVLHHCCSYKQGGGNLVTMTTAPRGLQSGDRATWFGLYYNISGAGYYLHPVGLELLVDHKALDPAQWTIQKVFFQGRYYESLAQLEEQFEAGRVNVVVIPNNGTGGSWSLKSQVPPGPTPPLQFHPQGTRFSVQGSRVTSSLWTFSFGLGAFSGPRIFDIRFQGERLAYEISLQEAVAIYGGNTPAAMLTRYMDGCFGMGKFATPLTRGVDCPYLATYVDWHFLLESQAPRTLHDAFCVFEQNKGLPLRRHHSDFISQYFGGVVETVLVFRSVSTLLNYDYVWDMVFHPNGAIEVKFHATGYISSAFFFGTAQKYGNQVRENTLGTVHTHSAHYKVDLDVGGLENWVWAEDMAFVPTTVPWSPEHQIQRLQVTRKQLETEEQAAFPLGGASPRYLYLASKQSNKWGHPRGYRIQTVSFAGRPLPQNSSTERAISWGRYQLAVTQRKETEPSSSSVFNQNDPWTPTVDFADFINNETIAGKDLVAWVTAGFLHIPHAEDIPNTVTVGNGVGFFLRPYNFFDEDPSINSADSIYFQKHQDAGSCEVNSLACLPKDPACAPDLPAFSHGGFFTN
Test: Inhibition of bovine plasma VAP-1 using 6-(5-Pheny1-2H-tetrazol-2-yl)hexan-1-amine as substrate at 10 uM measured after 30 mins by UV-HPLC analysis relative to control
Format: cell-free
readout-type: inhibition

Challenge: Sample `NCC(=O)N1CCC(CCCn2nnc(-c3ccccc3)n2)CC1` — what was its inhibition?
Response given: 19%

Challenge: Also `NCC(=O)NCCCCCCn1nnc(-c2ccccn2)n1` ?
Response given: 40%
